Target: HCV NS3 protease genotype 3a (3A-1) (Hepatitis C virus genotype 3a)
Assay: HCV NS3 protease time-resolved fluorescence (TRF) assay, genotype 3a
Format: biochemical
Details: Ki 3a
pKi: −log10 of the molar value.

{"MOLECULE": "C=C[C@@H]1C[C@]1(NC(=O)[C@@H]1C[C@@H]2CN1C(=O)[C@H](C(C)(C)C)NC(=O)O[C@@H]1C[C@H]1CCCCCc1c(nc3ccccc3c1OCCCN(CCO)Cc1ccccc1)O2)C(=O)NS(=O)(=O)C1(C)CC1", "pKi": 8.21}
{"MOLECULE": "C=C[C@@H]1CC1(NC(=O)[C@@H]1C[C@@H]2CN1C(=O)[C@H](C1CCOCC1)NC(=O)O[C@@H]1C[C@H]1CCCCCc1c(nc3ccccc3c1OC1CCN(C)CC1)O2)C(=O)NS(=O)(=O)C1(C)CC1 (stereo partly shown)", "pKi": 10.06}
{"MOLECULE": "C=C[C@@H]1C[C@]1(NC(=O)[C@@H]1C[C@@H]2CN1C(=O)[C@H](C1CCCC1)NC(=O)O[C@@H]1CCC[C@H]1CCC/C=C/Cc1c(nc3ccccc3c1O)O2)C(=O)NS(=O)(=O)C1CC1", "pKi": 7.92}
{"MOLECULE": "C=C[C@@H]1C[C@]1(NC(=O)[C@@H]1C[C@@H]2CN1C(=O)[C@H](C1CCCCC1)NC(=O)O[C@@H]1C[C@H]1CCCCCc1c(nc3ccccc3c1OCCCSc1nccs1)O2)C(=O)NS(=O)(=O)C1(C)CC1", "pKi": 7.85}
